Can you tell me Her2 level for the items I'm about to list?
# Assayed system: Receptor tyrosine-protein kinase erbB-2 (Homo sapiens) (UniProt P04626)
# Sequence (P04626 whole entry, looked up): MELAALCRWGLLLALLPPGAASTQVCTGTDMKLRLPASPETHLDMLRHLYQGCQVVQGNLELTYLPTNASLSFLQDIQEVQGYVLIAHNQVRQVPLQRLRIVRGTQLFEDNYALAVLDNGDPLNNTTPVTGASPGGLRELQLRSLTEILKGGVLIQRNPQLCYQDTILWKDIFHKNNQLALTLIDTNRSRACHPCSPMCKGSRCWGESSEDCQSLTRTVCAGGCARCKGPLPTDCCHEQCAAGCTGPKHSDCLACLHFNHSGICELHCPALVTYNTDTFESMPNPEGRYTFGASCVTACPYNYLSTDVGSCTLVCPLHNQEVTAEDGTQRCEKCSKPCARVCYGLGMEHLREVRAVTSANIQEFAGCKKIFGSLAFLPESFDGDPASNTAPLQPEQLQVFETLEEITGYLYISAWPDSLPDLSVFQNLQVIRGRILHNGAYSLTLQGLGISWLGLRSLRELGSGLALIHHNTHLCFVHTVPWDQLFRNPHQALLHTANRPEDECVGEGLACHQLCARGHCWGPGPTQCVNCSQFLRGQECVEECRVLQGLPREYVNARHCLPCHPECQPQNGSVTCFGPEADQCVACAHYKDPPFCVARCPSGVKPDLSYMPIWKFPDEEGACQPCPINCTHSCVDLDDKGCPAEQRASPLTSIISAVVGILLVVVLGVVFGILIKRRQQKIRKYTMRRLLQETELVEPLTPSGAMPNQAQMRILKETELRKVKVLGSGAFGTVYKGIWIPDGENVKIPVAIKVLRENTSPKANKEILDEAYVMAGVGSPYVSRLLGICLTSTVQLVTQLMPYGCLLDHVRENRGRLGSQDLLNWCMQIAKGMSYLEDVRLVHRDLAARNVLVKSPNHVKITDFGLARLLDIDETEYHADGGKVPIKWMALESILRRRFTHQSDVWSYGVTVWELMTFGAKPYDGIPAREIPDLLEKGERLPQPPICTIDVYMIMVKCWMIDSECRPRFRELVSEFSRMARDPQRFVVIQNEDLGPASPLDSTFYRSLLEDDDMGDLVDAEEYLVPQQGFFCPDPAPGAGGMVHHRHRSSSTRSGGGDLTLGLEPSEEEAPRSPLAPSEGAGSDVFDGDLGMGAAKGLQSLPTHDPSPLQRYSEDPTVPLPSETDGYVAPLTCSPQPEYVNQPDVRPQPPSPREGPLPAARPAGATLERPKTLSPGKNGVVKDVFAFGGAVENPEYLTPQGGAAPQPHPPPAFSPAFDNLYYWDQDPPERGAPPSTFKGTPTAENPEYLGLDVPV
# Test details: reducers of endogenous Her2 protein level, primary screen, SKBR3 breast tumor cells, AlphaScreen, ATP viability (AID 461);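 further: lower value means less Her2 protein in the cells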
# Measurement context: 18-24 h, at 10 µM, hits give low values
Activity calls are given as the source filed them.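 How the source made its calls: active means Her2 level under about 52% in both replicate screens, with viability over 70% of control (limit read from the data); inconclusive means Her2 under the limit in one screen only, or viability under 70%; inactive means Her2 level above the set limit.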

Which Her2 level value is on record for c1ccn2c(SCc3cn4ccsc4n3)nnc2c1 ?
93.5% (inactive)

Which Her2 level is listed for O=C(COC(=O)C12CC3CC(CC(O)(C3)C1)C2)N1CCN(S(=O)(=O)c2ccc(Cl)cc2)CC1 ?
85.5% (inactive)

Form field: reported Her2 level of CCCC(C)C(=O)Nc1ccc(C(N)=O)cc1 (stereo unspecified)
93.5% (inactive)

Which Her2 level value belongs to CCOc1cc(C(=O)N2CCN=C2SC)cc(OCC)c1OCC ?
83% (inactive)

Reported Her2 level, compound COc1cccc(N2CCN(Cc3nc(N)nc(Nc4ccccc4OC)n3)CC2)c1 : ____
92% (inactive)

// returns reported Her2 level for input COc1cc(OC)cc(OCC(O)Cn2cnc(-c3ccccc3)c2)c1 (stereo unspecified)
84% (inactive)

Bench note: what Her2 level did Cc1cccn2cc(-c3ccccc3)nc12 show?
77% (inactive)

Field request: Her2 level | item: COc1ccc(OCCC(=O)NCc2ccccc2)cc1
105% (inactive)

# Her2 level lookup, item C/C(=N\O)C(C)/[N+]([O-])=C/c1nc(C)c(C)n1O (stereo unspecified)
109% (inactive)

Which Her2 level is listed for Cc1cccc(N2C(=O)CC(N3CCN(Cc4ccc(Cl)cc4)CC3)C2=O)c1 (stereo unspecified) ?
100% (inactive)

Reported Her2 level for CCOc1ccc(Oc2nc(Nc3ccc(C)cc3)nc(N(C)C)n2)nn1 : what is it?
92% (inactive)

----------
For each record, write down the corresponding inhibition.
# Test details: growth suppression of yeast trafficking mutant, preliminary HTS, modulators of trafficking downstream of Golgi apparatus project, 1536-format plate, OD 615 nm (AID 637)
# Measurement context: yeast transport mutant growth, absorbance 615 nm, 18 h; hits give high values
// units = %; emit number, no label

Suppose we examine the molecule Cc1nc(N2CCOCC2)[nH]c(=O)c1CCC(C)C ; what inhibition value has been reported?
1.11

Name the reported inhibition value associated with the molecule COc1ccc(N2CCN(Cc3nc4c(c(=O)[nH]c(=O)n4C)n3CC(C)=O)CC2)cc1
0.17

Could you tell me which inhibition is on file for CCOc1ccccc1Nc1ncnc2ccccc12 ?
0.18

Fill blank: measured inhibition of the molecule CCOC(=O)C1CCN(C(=O)COc2ccc(Cl)cc2Cl)CC1 is ____.
-6.35

Would you mind telling me what inhibition value was observed for COc1ccccc1NC(=O)CSc1nnc(CC(=O)Nc2ccccc2)n1C ?
-2

What measured inhibition goes with Cc1cccc(COc2ccc(/C(O)=C3\C(=O)C(=O)N(CCN(C)C)C3c3ccncc3)cc2)c1 (stereo unspecified) ?
3.28

Look at this molecule and give its reported inhibition. c1ccc(-n2cnc3cc(NCc4ccccn4)ccc32)cc1
2.7

Give the measured inhibition of CC1(C)Cc2c(sc3c2C2=NCCN2C=N3)CO1 .
-4.55

Reported inhibition, molecule S=C(c1cccs1)N1CCCC1 : ____
-8.52

Param item = O=C(O)COc1ccc2occ(C(=O)c3ccccc3)c2c1 ; retrieve measured inhibition.
7.21

Entry Cc1ccc(Cn2ncc3c(NCCCN4CCOCC4)ncnc32)cc1 has what inhibition?
0.32

Report inhibition for O=C(Nc1ccon1)c1csc2c1CCCC2 please.
2

// returns reported inhibition for input CCn1c(=O)cc(SCC(=O)N2CCOCC2)c2ccccc21
-3.45

Look up inhibition: COCCOc1nc2ccccc2nc1C
4.19

Report inhibition for Cc1cc(C)n2cc(CSc3nnnn3C)nc2n1 please.
6.17

Would you kindly share the measured inhibition for CC(C)OC(=O)C(CC(=O)O)NCc1ccccc1 (stereo unspecified) ?
-1.29

Endpoint output: inhibition of Cc1cc(C(=O)NCCCN2CCOCC2)n(-c2ccccc2)n1 . Value?
3.61

inhibition lookup needed for OC(COc1ccccc1)CN1C2=NCCCN2c2ccccc21 (stereo unspecified) , thanks.
3.11

Reported inhibition, molecule CCOc1ccc(S(=O)(=O)N2CCN(C(=O)c3cccn3C)CC2)cc1 : ____
-2.86

Given the entry CC1N=C2c3ccccc3N=C(SCc3cc(=O)n4cc(Cl)ccc4n3)N2C1=O (stereo unspecified) , report its measured inhibition.
-0.48

State the recorded inhibition for this entry: COc1ccc(C2C(=O)N(C3CCCCC3)CC(=O)N2Cc2ccco2)cc1 (stereo unspecified)
1.45

Need inhibition of CCn1c(=O)n(CC(=O)N(C)Cc2ccccc2)c(=O)c2ccccc21 , thanks.
-0.48

Give the measured inhibition of O=S(=O)(c1ccc2nc(Cc3cccc(C(F)(F)F)c3)[nH]c2c1)N1CCOCC1 .
-0.16

Consider the molecule Cc1nnc(C)n1/N=C/c1cccc(Oc2ccccc2)c1 and give its measured inhibition.
0.16

Value lookup for inhibition; key = c1ccc(-n2c(Sc3cnccn3)nnc2-c2cccs2)cc1
-3.49

What does the data say about its inhibition? Entry: CC(=O)Oc1ccc(-c2ccc(C(=O)O)cc2)cc1
-7.83

Could you share which inhibition value was measured for O=C(CN1CCCCCC1)OCCN=C1NS(=O)(=O)c2ccccc21 ?
-6.51

Data request, read-out inhibition, for Cc1oc2c(CN3CCCC3)c(O)ccc2c(=O)c1-c1ccccc1
0.48

Recorded inhibition for CC(=O)NC(Cc1ccccc1)C(=O)NC1CCN(C(=O)c2cnccn2)CC1 (stereo unspecified) , please?
8.52

Field request: inhibition | item: COc1ccccc1OCC(=O)Nc1ccc(S(=O)(=O)Nc2nc(C)cc(C)n2)cc1
-5.5

I would be grateful if you could share the reported inhibition for Cn1c(=O)c(-c2ccccc2)nn2c3ccccc3nc12 .
3

// query inhibition value for entry N#Cc1cn(CC(=O)N2CCCC2)c2ccccc12
1.15

Field request: inhibition | item: Cc1sc2nc(CN3CCN(S(=O)(=O)c4cccc5nonc45)CC3)[nH]c(=O)c2c1C
0.5

Entry CCOC(=O)CCCn1nc(C)n2c(cc3sccc32)c1=O has what inhibition?
-3.77

Field request: inhibition | item: NS(=O)(=O)c1ccc(NCc2c(F)cccc2Cl)cc1
7.54

GET /values?readout=inhibition&item= COC(=O)C1=C(C)OC(N)=C(C#N)C1c1ccccc1 (stereo unspecified)
-9.82

Find the recorded inhibition belonging to CCc1ccccc1NC(=O)CN(c1cccc(OC)c1)S(C)(=O)=O and report it.
-7.74

I have this molecule here, CCCCn1c(SCC(=O)N2CC(=O)Nc3ccccc32)nnc1-c1ccoc1C , and I need its recorded inhibition.
-8.55

// lookup inhibition for O=C(COc1ccccc1)Nc1ccc(-c2nnc(-c3ccco3)o2)cc1
-1.15

Which inhibition is reported for this molecule? COc1ccc(N2CCN(C(c3cccc(OC)c3OC)c3nnnn3C3CCCC3)CC2)cc1 (stereo unspecified)
-2.06

Look up inhibition: CCN(Cc1nc2ccccc2c(=O)[nH]1)Cc1nc2cc(OC)c(OC)cc2c(=O)[nH]1
9.83

Returns the measured inhibition for the input molecule. Input: CC(C)(C)NC(=O)C(c1ccco1)N(C(=O)Cn1nnc(-c2ccc(F)cc2)n1)c1ccccc1F (stereo unspecified)
21.8

Give the measured inhibition of CC(C)(C)n1ncc2c(=O)n(CC(=O)c3ccccc3)cnc21 .
-3.23

Fill blank: measured inhibition of the molecule CCn1c(=O)n(CC(=O)NCc2ccccc2OC)c(=O)c2ccccc21 is ____.
-3.06

What measured inhibition goes with COc1ccc(NC(=O)c2cc(C(C)C)on2)c(OC)c1 ?
-2

Using the record for CCN(C(=O)COC(=O)c1cc(C)n(-c2ccc(F)cc2)c1C)C1CCS(=O)(=O)C1 (stereo unspecified) , report its inhibition.
1.61

Value source: PubChem BioAssay
